Assay: FRG1 expression reporter modulators in myotubes – cell-based, C2C12 myotubes, firefly/Renilla luciferase, luminescence, FRG1 inhibition for FSHD, primary screen (AID 1084)
Conditions: FRG1 promoter luciferase, higher = more signal, called active from +8 up or from −8 down
Think of -2 as a floor: if z-score stands on it or above, it is T; beneath it, F.

For orientation, consider the following solved cases.
COCCCNC(=O)[C@]1(CCS(=O)(=O)c2ccccc2)N=C(c2ccc(OCCCO)cc2)O[C@@H]1c1ccccc1; T
COC(=O)[C@]1(Cc2ccccc2N=[N+]=[N-])N=C(c2ccc(OCCCO)cc2)O[C@@H]1c1ccccc1; T
C=C(C)[C@@H]1CC=C(C(O)C2C=CC3C(=O)N(C4CCCCC4)C(=O)C3N2Nc2ccc(OC)cc2)CC1 (stereo partly drawn); T
CC(C)[Si](C#C[Si](C(C)C)(C(C)C)C(C)C)(O[C@H](C)c1cn(Cc2cccc(Cl)c2)nn1)C(C)C; T
COc1ccc([Si](C)(C)[C@@H]2[C@@H](CC(=O)N(CCO)Cc3ccccc3)O[C@]3(C(=O)N(C)c4c(Br)cc(C)cc43)[C@H]2C)cc1; F
O=C(NCc1ccccc1)[C@]1(Cc2ccccc2)N=C(c2ccc(OCCCO)cc2)O[C@@H]1c1ccccc1; F
CCCNC(=O)[C@@]1(Sc2ccc(C)cc2)CC(=O)N(Cc2ccccc2)[C@@H]1c1ccc(CO)cc1I; T

# input for lookup
Could you please find out whether `Cc1ccc(S[C@]2(C(=O)O)CC(=O)N(Cc3ccccc3C(F)(F)F)[C@@H]2c2ccc(CO)cc2)cc1` has z-score that meets -2 or exceeds it? T
